TARGET_OR_SYSTEM: human NK2 receptor (Homo sapiens)
Sequence (P21452 whole entry): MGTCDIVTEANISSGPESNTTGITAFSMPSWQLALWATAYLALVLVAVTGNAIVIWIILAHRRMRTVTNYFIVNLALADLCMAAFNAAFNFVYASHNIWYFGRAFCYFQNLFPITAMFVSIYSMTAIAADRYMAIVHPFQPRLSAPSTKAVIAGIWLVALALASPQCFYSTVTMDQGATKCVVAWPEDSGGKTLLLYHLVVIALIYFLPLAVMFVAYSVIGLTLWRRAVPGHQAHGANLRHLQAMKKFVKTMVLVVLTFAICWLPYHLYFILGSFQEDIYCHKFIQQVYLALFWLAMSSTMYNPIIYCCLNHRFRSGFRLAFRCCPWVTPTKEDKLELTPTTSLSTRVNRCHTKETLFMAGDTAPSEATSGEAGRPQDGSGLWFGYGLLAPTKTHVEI
Hi! Could you tag entries with IC50 below 200 nM as 1 (yes), and those at or above as 0 (no)? Much appreciated.

[[record]]
molecule = "CN(Cc1ccccc1Cl)C(=O)[C@H](Cc1c[nH]c2ccccc12)NC(=O)[C@@H]1C[C@@H](O)CN1C(=O)C1C(=O)C2(C)CCC1C2(C)C (some centres unmarked)"
target_or_system = "human NK2 receptor (Homo sapiens)"
category_label = "1 (yes)"

[[record]]
molecule = "CCOC(=O)c1ccccc1N1CCN(C(=O)[C@H](Cc2ccc3ccccc3c2)NC(=O)[C@@H]2C[C@@H](O)CN2C(=O)C2C(=O)C3(C)CCC2C3(C)C)CC1 (some centres unmarked)"
target_or_system = "human NK2 receptor (Homo sapiens)"
category_label = "1 (yes)"

[[record]]
molecule = "CN(Cc1ccccc1)C(=O)[C@H](Cc1ccc2ccccc2c1)NC(=O)[C@@H]1C[C@@H](O)CN1C(=O)C1C(=O)C2(C)CCC1C2(C)C (some centres unmarked)"
target_or_system = "human NK2 receptor (Homo sapiens)"
category_label = "0 (no)"

[[record]]
molecule = "COc1ccccc1N1CCN(C(=O)[C@H](Cc2ccc3ccccc3c2)NC(=O)[C@@H]2C[C@@H](O)CN2C(=O)C2CC3C=CC2(OC)CC3)CC1 (some centres unmarked)"
target_or_system = "human NK2 receptor (Homo sapiens)"
category_label = "0 (no)"

[[record]]
molecule = "CC12CCC(C(C(=O)N3C[C@H](O)C[C@H]3C(=O)N[C@@H](Cc3ccc4ccccc4c3)C(=O)N3CCN(c4ccccc4Cl)CC3)C1=O)C2(C)C (some centres unmarked)"
target_or_system = "human NK2 receptor (Homo sapiens)"
category_label = "1 (yes)"

[[record]]
molecule = "COc1ccccc1N1CCN(C(=O)[C@H](Cc2ccc3ccccc3c2)NC(=O)[C@@H]2C[C@@H](O)CN2C(=O)C2C(=O)C3(C)CCC2C3(C)C)CC1 (single isomer, unassigned)"
target_or_system = "human NK2 receptor (Homo sapiens)"
category_label = "1 (yes)"

[[record]]
molecule = "COc1ccccc1CN1C(=O)C(NC(=O)[C@@H]2C[C@@H](O)CN2C(=O)C2C(=O)C3(C)CCC2C3(C)C)Cc2cc(OC)c(OC)cc21 (some centres unmarked)"
target_or_system = "human NK2 receptor (Homo sapiens)"
category_label = "0 (no)"

[[record]]
molecule = "CC12CCC(C(C(=O)N3C[C@H](O)C[C@H]3C(=O)N[C@@H](Cc3ccc4ccccc4c3)C(=O)N3CCN(c4ccc5ccccc5c4)CC3)C1=O)C2(C)C (some centres unmarked)"
target_or_system = "human NK2 receptor (Homo sapiens)"
category_label = "0 (no)"

[[record]]
molecule = "CC(C)c1ccccc1N1CCN(C(=O)[C@H](Cc2ccc3ccccc3c2)NC(=O)[C@@H]2C[C@@H](O)CN2C(=O)C2C(=O)C3(C)CCC2C3(C)C)CC1 (some centres unmarked)"
target_or_system = "human NK2 receptor (Homo sapiens)"
category_label = "1 (yes)"

[[record]]
molecule = "COc1ccccc1N1CCN(C(=O)[C@H](Cc2ccc3ccccc3c2)NC(=O)[C@@H]2C[C@@H](O)CN2C(=O)C2C(O)C3CCN2CC3)CC1 (some centres unmarked)"
target_or_system = "human NK2 receptor (Homo sapiens)"
category_label = "0 (no)"

[[record]]
molecule = "CSc1ccccc1N1CCN(C(=O)[C@H](Cc2ccc3ccccc3c2)NC(=O)[C@@H]2C[C@@H](O)CN2C(=O)C2C(=O)C3(C)CCC2C3(C)C)CC1 (some centres unmarked)"
target_or_system = "human NK2 receptor (Homo sapiens)"
category_label = "0 (no)"

